The values you see were collected from patent US20240301052A1.

Please respond with reported EC50 for every item in the list.
Target: T1, human SLC34A2 (human, UniProt O95436 1-690)
T1 construct: whole, on cells; also called human solute carrier 34 A2; NaPi2b
T1 sequence (looked up): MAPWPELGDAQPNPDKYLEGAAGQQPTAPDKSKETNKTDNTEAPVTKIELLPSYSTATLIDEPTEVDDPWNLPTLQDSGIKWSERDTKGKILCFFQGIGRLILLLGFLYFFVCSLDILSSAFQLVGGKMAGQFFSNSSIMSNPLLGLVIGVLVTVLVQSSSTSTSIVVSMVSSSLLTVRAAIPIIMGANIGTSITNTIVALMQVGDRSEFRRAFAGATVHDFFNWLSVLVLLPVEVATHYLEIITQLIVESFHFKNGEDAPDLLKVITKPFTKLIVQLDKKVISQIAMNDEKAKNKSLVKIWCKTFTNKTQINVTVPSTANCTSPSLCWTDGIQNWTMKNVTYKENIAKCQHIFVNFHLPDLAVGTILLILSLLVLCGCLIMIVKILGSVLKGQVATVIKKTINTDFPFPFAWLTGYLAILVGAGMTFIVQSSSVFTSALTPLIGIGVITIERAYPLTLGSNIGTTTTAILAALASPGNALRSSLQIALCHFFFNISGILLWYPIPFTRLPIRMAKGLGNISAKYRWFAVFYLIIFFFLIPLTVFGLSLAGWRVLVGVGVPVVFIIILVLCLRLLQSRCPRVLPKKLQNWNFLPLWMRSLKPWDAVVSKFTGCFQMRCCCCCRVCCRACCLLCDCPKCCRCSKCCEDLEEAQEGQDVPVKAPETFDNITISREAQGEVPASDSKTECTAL
Assay: FACS, MDAH2774 cells
One number for each entry, in nM.

Study these solved cases before continuing.
[
  {
    "binder": "30H9B8F9.p1.z5 hIgG1 (antibody, V domains shown, humanized hIgG1) VH: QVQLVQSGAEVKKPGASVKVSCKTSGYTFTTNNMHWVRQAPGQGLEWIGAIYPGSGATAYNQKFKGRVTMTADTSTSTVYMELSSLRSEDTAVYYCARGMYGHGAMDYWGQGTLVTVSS VL: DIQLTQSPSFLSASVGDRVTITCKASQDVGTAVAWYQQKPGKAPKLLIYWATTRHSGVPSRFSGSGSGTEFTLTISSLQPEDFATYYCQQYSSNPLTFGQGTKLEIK",
    "EC50 (nM)": 1.28
  },
  {
    "binder": "63A11D5B4.p1.z9 hIgG1 (antibody, V domains shown, humanized hIgG1) VH: QVQLVQSGAEVVKPGASVKMSCKTSGYTFITYNMHWVRQAPGQGLEWIGAIYPGSGDTSYNQKFKGRVTLTADKSTSTAYMELSSLRSEDTAVYYCSISTIITTGAVDYWGQGTLVTVSS VL: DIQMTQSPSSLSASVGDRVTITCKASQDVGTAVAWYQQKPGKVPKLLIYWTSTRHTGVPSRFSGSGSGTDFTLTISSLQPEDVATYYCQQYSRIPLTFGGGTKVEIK",
    "EC50 (nM)": 15.1
  }
]

Now examine the next entry.
Just so you know, measured EC50 for RG-7599 (antibody, INN chains, looked up, V domains shown, vedotin (MMAE) payload) VH: EVQLVESGGGLVQPGGSLRLSCAASGFSFSDFAMSWVRQAPGKGLEWVATIGRVAFHTYYPDSMKGRFTISRDNSKNTLYLQMNSLRAEDTAVYYCARHRGFDVGHFDFWGQGTLVTVSS VL: DIQMTQSPSSLSASVGDRVTITCRSSETLVHSSGNTYLEWYQQKPGKAPKLLIYRVSNRFSGVPSRFSGSGSGTDFTLTISSLQPEDFATYYCFQGSFNPLTFGQGTKVEIK came out at 8.74
